# Tested on: biotinylated CD59 (Homo sapiens, UniProt P13987)
# Construct: Recombinant soluble human CD59 with an additional C-terminal cysteine residue
# Sequence (P13987 26-102 limits assumed): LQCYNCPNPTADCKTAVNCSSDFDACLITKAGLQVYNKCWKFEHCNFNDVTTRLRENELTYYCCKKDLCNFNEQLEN
# Procedure summary: mRNA-display cyclic peptide screen against CD59-biotin, NGS abundance after 6th selection round
# Condition notes: average of Seq I and Seq II, sheet R6
Here, each record is paired with measured Percentage of the pool, averaged across the two sequencing samples data.
Give your result in % as a bare value.

Some solved cases for reference:
* FIRGNSTSVLFAAAAAAARTGGG | 0.013
* CFVNRLGSAESR | 0.018

## Task Fill blank: measured Percentage of the pool, averaged across the two sequencing samples of the sequence "TLSTNRDLIRLLAAAAAAARTGGG" is ____.
## Result 0.017

## Task Fill blank: measured Percentage of the pool, averaged across the two sequencing samples of the sequence "DPICTRYNDPR" is ____.
## Result 0.011

## Task Fill blank: measured Percentage of the pool, averaged across the two sequencing samples of the sequence "CFSRRLTEGAI" is ____.
## Result 0.010

====

# Tested on: biotinylated CD59 (Homo sapiens)
# Construct: Recombinant soluble human CD59 with an additional C-terminal cysteine residue
# Sequence (P13987 26-102 limits assumed): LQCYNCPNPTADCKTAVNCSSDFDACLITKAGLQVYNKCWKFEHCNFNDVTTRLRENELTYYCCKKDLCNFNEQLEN
# Procedure summary: mRNA-display cyclic peptide screen against CD59-biotin, NGS abundance after 6th selection round
# Condition notes: counts normalised by total counts of sample Seq I; percentage of the pool, sheet R6
Classification field: enter t for Percentage Seq I values not below 0.07%, f for values below it.

Past entries and their recorded results:
• HVRGDAWTVLG = t
• CRGNRFYQLSFH = t
• CYGGRTFIYEWS = f
• SSWAQLPCRR = f
• CFANRLYGSDSR = f

Continue with the sequence presented below.
## Task Determine whether this sequence has Percentage Seq I no lower than 0.07%: "FIFGNRNWTFG"
## Result f

====

Here, each record is paired with measured Counts Seq I data.
# Tested on: biotinylated CD59 (Homo sapiens, UniProt P13987)
# Construct: Recombinant soluble human CD59 with an additional C-terminal cysteine residue
# Sequence (P13987 26-102 limits assumed): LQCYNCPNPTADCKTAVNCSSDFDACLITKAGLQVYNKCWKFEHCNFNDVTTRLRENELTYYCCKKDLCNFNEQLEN
# Procedure summary: mRNA-display cyclic peptide screen against CD59-biotin, NGS abundance after 6th selection round
# Condition notes: raw NGS counts of peptide sequence, sequencing sample Seq I, sheet R6 (6th selection round)
When you answer, write just the number.

Some solved cases for reference:
• CFQRRTLGPDAI = 412
• SAWGNRQVQYY = 483
• LKPNGRCLPKV = 1189
• HVFGNRSFTSG = 73
• CFSNRISGPAV = 864

## Task Give biotinylated CD59 (Homo sapiens, UniProt P13987) Counts Seq I for "RAWGNRYIAYY"
## Result 119

## Task Give biotinylated CD59 (Homo sapiens, UniProt P13987) Counts Seq I for "GYLNECHTLYTL"
## Result 105

## Task Give biotinylated CD59 (Homo sapiens, UniProt P13987) Counts Seq I for "CLDKWGRLWS"
## Result 3987

## Task Give biotinylated CD59 (Homo sapiens, UniProt P13987) Counts Seq I for "LWGAANYLKVIY"
## Result 201

## Task Give biotinylated CD59 (Homo sapiens, UniProt P13987) Counts Seq I for "CHGGRTFIYAWS"
## Result 108
